test: yeast display, Sf9 membrane polyspecificity reagent, FACS + sequencing; frameworks hold sequencing errors
Test Readout: polyreactivity (PSR sort gate)

Some solved cases for reference:
Task: Any idea what polyreactivity (PSR sort gate) was measured for QVHLVESGGGLVQAGGSLRLSCGASGSIFFIYAMGCYRQAPGKERELVATITSGGSTYYADSLKGRFTISRDNAKNTVYLQMNSLKPEDTAVYYCAVDEYFAFDYWGLGTQVTVSS ?
Output: low polyreactivity

Task: // query: QVQLVESGGGLVQAGGSLRLSCAASGRIFERNAKGWYRQAPGKERELVAALTYNGGRTYYADSVKGRFTITRDNAKNTVYLQLNSLKPEDTAVYNCNAQSRVTRSSYRGSPRYDYWGQGTQVTVSS
Output: high polyreactivity

Task: // query: QVQLVESGGGLVQAGGSLRLSCAASGRIFTHNAMGWYRQAPGKERELVAAISYSGVSTYYADSVKGRFTISRDNAKNTVYLQMNSLKPEDTAVYYCNALIQSWRARIRRYYWGQGTQVTVSS
Output: low polyreactivity

Task: // query: QVQLVESGGGLVQAGGSLRLSCAASGRTFYTYAMGWYRQAPGKERELVATITSGGSTYYGDSVKGRFTISRDNAKNTVYLQMNSLKPEDTAVYYCDVEVFVDYDYWGQGTQVTVSS
Output: high polyreactivity

Give measured polyreactivity (PSR sort gate) for every item shown.
1. QLQLVESGGGLVQAGGSLSLSCAASGSTFDYYDMGWYRQAPGKERELFSYISWSGGSTRYADSVKGRYTISRDNAKNTVYLQMNSLKPEESAVYYCNKSNPDYDRLAIHAFDYWGQGTQLTVSS
2. QVQLVESGGGLVQAGGSLRLSCAASGFTFVWYVMGWYRQAPGKEREFVAAITSTGGNTNYADSVKGRFTISRDNAKNTVYLEMNSLKPEDTAVYYCAKRYGFPPGYYYWGQGTQVTVSS

Output:
1. low polyreactivity
2. low polyreactivity

Give measured polyreactivity (PSR sort gate) for every item shown.
1. QVQLVESGGGLVQAGGSLRLSCAASGGIFVRYAMGWYRQAPGKERELVAAISYSGGSTYYADSVKGRFTISRDNAKNTVYLQLNSLKPEDTAVYYCAAYVTGRYDWGQVTQVTVSS
2. QVQLVESGGGLVQAGGSLRLSCAASGLIFTTNAMGWYRQAPGKERELVAAISTSTGRTYYADSVKGRFTISRDNAKNTVYLQMNSLKPEDTAVYYCARGSRYVGTQRHYYKYDYWGQGTQVTVSS
3. QVQLVESGGGLVQAGGSLRLSCAASGSIFSGYTMGWYRQAPGKERELVAAITQRGTRTYYADSVKGRFTISRDNAKNTVYLQMNSLKPEDTAVYYCAADSVVVGSPGNDYWGQGTQVTVSS

Output:
1. high polyreactivity
2. high polyreactivity
3. high polyreactivity

Give measured polyreactivity (PSR sort gate) for every item shown.
1. QVQLVESGGGLVQAGGSLRLSCAASGSIFQYYTMGWYRQAPGKERELVATISRRGGTTYYADSVKGRFTISRDNAKNTVYLQMNILKPEDTAVYYCNADSRTYRYYWSYGYWGQGTQVTVSS
2. QVQLVESGGGLVQAGGSLRLSCAASGRIFPYNAMGWSRQAPGKERELVASITSGGGSTYYADSVKGRFTISRDNAKNTVYLQMKSLKPEDTAVYYCSTRGYAWSSDKFGYWGQGTQVTVSS

Output:
high polyreactivity
high polyreactivity
